test system: KM12; test: NCI tumour cell line growth inhibition, 48 h
Active and inactive are the calls of the source. No stated cut-off is given here; in the data, active = GI50 up to about 1.1 µM and inactive = higher.
Outcomes: active, inactive

[[record]]
compound = "O=C1OC(c2ccccc2)=N/C1=C\\c1ccc([N+](=O)[O-])cc1"
assignedcategory = "inactive"

[[record]]
compound = "[N-]=[N+]=NC(CBr)c1cn([C@H]2C[C@H](O)[C@@H](CO)O2)c(=O)[nH]c1=O (some centres undefined)"
assignedcategory = "inactive"

[[record]]
compound = "O=C(O)CN1CCSc2ccccc2CN(CC(=O)O)CCSc2ccccc2C1"
assignedcategory = "inactive"

[[record]]
compound = "N#Cc1c(NC(=S)NC(=O)c2ccccc2)nc2c(c1-c1ccccc1)CCC2"
assignedcategory = "inactive"

[[record]]
compound = "COC(=O)C1=C(C(=O)OC)C(C(=O)c2ccc(Br)cc2)N2N=C(c3ccc(Cl)cc3)C=CC12 (centres undefined)"
assignedcategory = "inactive"

[[record]]
compound = "CCOC(=O)c1ccc(/N=c2/[nH]c3ccccc3s/c2=N/c2ccc(C(=O)OCC)cc2)cc1"
assignedcategory = "inactive"

[[record]]
compound = "N=C(N)NCCN1CCCCCc2ccccc21"
assignedcategory = "inactive"

[[record]]
compound = "C/C(=C\\CO)CC[C@@H]1[C@@]2(C)CCCC(C)(C)[C@@H]2CC[C@@]1(C)O"
assignedcategory = "inactive"

[[record]]
compound = "COc1ccc(OC)c(C2CCc3c(cnc4nc(N)nc(N)c34)C2)c1 (centres undefined)"
assignedcategory = "inactive"

[[record]]
compound = "Cc1cc2c(cc1Cl)S(=O)(=O)OC(c1ccc([N+](=O)[O-])cc1)=N2"
assignedcategory = "inactive"

[[record]]
compound = "O=C1CC2(CCC3=C(O2)c2ccccc2NC(=O)C3)C(=O)c2ccccc2N1 (centres undefined)"
assignedcategory = "inactive"

[[record]]
compound = "CN(C)CCNc1ccc(NCCN(C)C)c2c1C(=O)c1ncsc1C2=O"
assignedcategory = "inactive"

[[record]]
compound = "C[C@H](c1ccccc1)N1C(=O)[C@@H](O)[C@H]1[C@H](CO)OCc1ccccc1"
assignedcategory = "inactive"

[[record]]
compound = "C[S+]=c1sc2ccccc2s1"
assignedcategory = "inactive"

[[record]]
compound = "CCOC(=O)c1cc2c3c(cc(OC)c2[nH]1)N(C(=O)OCC)CC3"
assignedcategory = "inactive"

[[record]]
compound = "COc1ccc(C2OCCN2C)cc1 (centres undefined)"
assignedcategory = "inactive"

[[record]]
compound = "COc1cc(/C=C(\\NC(=O)c2ccccc2)c2nc3cc([N+](=O)[O-])ccc3[nH]2)cc(OC)c1OC"
assignedcategory = "inactive"

[[record]]
compound = "CCO[C@@H]1CCC([S+]([O-])c2ccc(C)cc2)=CO1 (some centres undefined)"
assignedcategory = "inactive"

[[record]]
compound = "CC(C)CCCC(C)[C@H]1CCC2[C@@H]3CCC4Nc5nocc5C[C@]4(C)C3CC[C@@]21C (some centres undefined)"
assignedcategory = "inactive"

[[record]]
compound = "COC(=O)c1cc(NC(=O)c2cc(NC(=O)Cc3c[nH]c4ccccc34)cn2C)cn1C"
assignedcategory = "inactive"

[[record]]
compound = "[C-]#[N+][C@@H]1C2[C@H](CC[C@@]1(C)O)C(=C)CC[C@@H]2[C@@]1(C)CC[C@H](Cl)C(C)(C)O1 (some centres undefined)"
assignedcategory = "inactive"

[[record]]
compound = "CC(C)C[C@H](NC(=O)[C@H](Cc1ccccc1)NC(=O)CCc1ccccc1)B(O)O"
assignedcategory = "active"

[[record]]
compound = "C[C@H]1C[C@H](C)c2ccccc2N(C)/C1=N\\c1ccccc1"
assignedcategory = "inactive"

[[record]]
compound = "O=[N+]([O-])c1nccn1CC(O)CN1CCCCC1 (centres undefined)"
assignedcategory = "inactive"

[[record]]
compound = "CCOC(=O)c1ccc2c(=O)n3c(C(=O)OCC)ccc3c(=O)n12"
assignedcategory = "inactive"

[[record]]
compound = "O=C(O)[C@@H]1CCCN1"
assignedcategory = "inactive"

[[record]]
compound = "O=C1C=C(O)C(=O)c2c(O)ccc(O)c21"
assignedcategory = "inactive"

[[record]]
compound = "O=C(O)C1C(C(=O)Nc2ccc3c(c2)Cc2ccccc2-3)C2(Cl)C(Cl)=C(Cl)C1(Cl)C2(Cl)Cl (centres undefined)"
assignedcategory = "inactive"

[[record]]
compound = "C#CCOC(=O)C(N)CSSCC(N)C(=O)O (centres undefined)"
assignedcategory = "inactive"

[[record]]
compound = "Oc1c(C(Nc2ccccn2)c2ccccc2)ccc2cccnc12 (centres undefined)"
assignedcategory = "inactive"

[[record]]
compound = "CN(C)Cc1cc(C(C)(C)C)cc(CNC2CCCCC2)c1O"
assignedcategory = "inactive"

[[record]]
compound = "N#C/C(=C\\c1ccccc1O)C(N)=O"
assignedcategory = "inactive"

[[record]]
compound = "O=C(NCCc1ccccc1)C1C(=O)C(=O)N(CCc2ccccc2)C1=O (centres undefined)"
assignedcategory = "inactive"

[[record]]
compound = "O=C(O)C12C3C4(C(=O)O)C1C1(C(=O)O)C2C3(C(=O)O)C41 (centres undefined)"
assignedcategory = "inactive"

[[record]]
compound = "CN(C)C(=N)c1ccccc1"
assignedcategory = "inactive"

[[record]]
compound = "COc1cc2cc3c4c(cc(OC)c(OC)c4c2cc1OC)CCN3C"
assignedcategory = "inactive"

[[record]]
compound = "CSCCC(NC(=O)C(Cc1ccccc1)NC(=O)CNC(=O)CNC(=O)C(N)Cc1ccc(O)cc1)C(=O)O (centres undefined)"
assignedcategory = "inactive"

[[record]]
compound = "N#CC(/N=N/c1ccccc1)c1nc2ccccc2o1 (centres undefined)"
assignedcategory = "inactive"

[[record]]
compound = "C=CCn1c(-c2ccc(Cl)cc2)cs/c1=N\\c1ccccc1OC"
assignedcategory = "inactive"

[[record]]
compound = "O=c1c2c(nc3[nH]ccn13)CCC2"
assignedcategory = "inactive"

[[record]]
compound = "NC(=O)c1ncn2c1NCC1OC2C(O)C1O (centres undefined)"
assignedcategory = "inactive"

[[record]]
compound = "CCOC(=O)NC"
assignedcategory = "inactive"

[[record]]
compound = "CC(C)(C)c1ccnc(/N=C2\\N/C(=N\\c3cc(C(C)(C)C)ccn3)c3ccccc32)c1"
assignedcategory = "inactive"

[[record]]
compound = "Cc1cc(C)c2c(O)cc(-c3ccc(F)cc3)nc2n1"
assignedcategory = "inactive"


---

tested on: M14; experiment: NCI tumour cell line growth inhibition, 48 h
Calls of active or inactive are those of the source. Cut-off read from the data, not from the text of the source: active = GI50 up to about 1.1 µM and inactive = higher.
Outcomes: active, inactive

[[record]]
molecule = "Cc1ccc(SC[C@@]2(C(F)F)NC(=O)NC2=O)cc1"
testedtarget = "M14"
assignedcategory = "inactive"

[[record]]
molecule = "COc1ccc(C[C@H](N)C(=O)N2C[C@@H](CO)C[C@@H](n3ccc(=O)[nH]c3=O)C2)cc1"
testedtarget = "M14"
assignedcategory = "inactive"

[[record]]
molecule = "NNC(=S)N/N=C(\\CCCC(=O)NCCc1ccccc1)CC(=O)c1ccccc1"
testedtarget = "M14"
assignedcategory = "inactive"

[[record]]
molecule = "COc1c(O)cc2c(c1O)C(=O)C1=C(CCCC1)C2=O"
testedtarget = "M14"
assignedcategory = "inactive"

[[record]]
molecule = "O=C1OC(c2ccccc2)=N/C1=C\\c1ccc([N+](=O)[O-])cc1"
testedtarget = "M14"
assignedcategory = "inactive"

[[record]]
molecule = "O=C1OC(C2Cc3ccc4ccccc4c3C2=O)c2ccccc21 (centres undefined)"
testedtarget = "M14"
assignedcategory = "inactive"

[[record]]
molecule = "N#CC1(O)CCCCCCCCCCC1"
testedtarget = "M14"
assignedcategory = "inactive"

[[record]]
molecule = "CN(CCC#N)c1ccc(/C=C2\\SC(=S)NC2=O)cc1"
testedtarget = "M14"
assignedcategory = "inactive"

[[record]]
molecule = "Cc1ccc(C(=O)NC2C(=O)NC(C(C)C)C(=O)N3CCCC3C(=O)N(C)CC(=O)N(C)C(C(C)C)C(=O)OC2C)c2c1Oc1c(c(C(=O)NC3C(=O)NC(C(C)C)C(=O)N4CCCC4C(=O)N(C)CC(=O)N(C)C(C(C)C)C(=O)OC3C)c3nc(-c4ccccc4)c(=O)oc3c1C)N2 (centres undefined)"
testedtarget = "M14"
assignedcategory = "active"


---

system: NCI/ADR-RES; experiment: NCI tumour cell line growth inhibition, 48 h
Activity calls are given as the source filed them. Cut-off read from the data, not from the text of the source: active = GI50 up to about 1.1 µM and inactive = higher.
# GI50 listing for each entry below
metric: GI50

[[record]]
molecule = "CN1CCN(CC(=O)Nc2cccc3ccccc23)CC1"
result = "> 100 µM (inactive)"

[[record]]
molecule = "O=C1CSC(c2ccc(Cl)cc2)N1c1ccc(Oc2ccc(Cl)cc2)c(Cl)c1 (stereo not given)"
result = "17.4 µM (inactive)"

[[record]]
molecule = "CCOC(=O)c1ccc(/N=c2/[nH]c3ccccc3s/c2=N/c2ccc(C(=O)OCC)cc2)cc1"
result = "88.9 µM (inactive)"

[[record]]
molecule = "COc1c(O)cc2c(c1O)C(=O)C1=C(CCCC1)C2=O"
result = "17.3 µM (inactive)"

[[record]]
molecule = "Cc1ccc(N2C(N)=C(C#N)C(C#N)(C#N)C2c2ccccc2)cc1 (stereo not given)"
result = "17 µM (inactive)"

